- System: PCTK3
- Construct: gene CDK18
- CONDITION NOTES: concentration: 1 μM, replicates: in singlicate; n = 1
OBSERVED PROPERTY: %Inh (%)
One number for each entry, in %.

Would you please look over these solved cases?
MOLECULAR STRING: CCn1c(-c2nonc2N)nc2c(-c3ccccc3)ncc(OCCCN)c21.O=C(O)C(F)(F)F.O=C(O)C(F)(F)F
MEASURED TARGET: PCTK3
UNIT TEXT: %
%Inh: 0
//
MOLECULAR STRING: COc1cccc(CC(=O)N2CCc3cc(-c4cn(C)c5ncnc(N)c45)ccc32)c1
MEASURED TARGET: PCTK3;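 also: KINOMEscan kinase panel screen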
UNIT TEXT: %
%Inh: 4

Required: %Inh, one value per molecule below.
1. Fc1cc(Cl)ccc1Nc1ccnc2cc(-c3ccc(CN4CCSCC4)o3)ccc12
2. Cc1ccc(NC(=O)c2cccc(N3CCCCC3)c2)cc1-c1ccc(C(=O)NCC2CC2)cc1
3. Cc1ccc(O)cc1Nc1ccnc2ccc(C(C)(C)C)cc12
4. COc1ccc(NC(=O)c2ccoc2)cc1-c1ccc(C(=O)NCC2CC2)cc1
5. CCOc1nccc(-c2c(-c3ccc(F)cc3)ncn2C2CCNCC2)n1
6. COc1cccc(-c2nc(-c3ccccc3)[nH]c2-c2ccncc2)c1

RESULT:
1: 8; 2: 26; 3: 5; 4: 0; 5: 17; 6: 14

Source: paper PMC5540273
